Source: paper PMC10096391

Tested system: CDK2/cyclin E (CDK2E) (Homo sapiens, UniProt P24941)
Experiment summary: ADP-Glo kinase assay, CDK2/cyclin E
Format: biochemical
Experimental parameters: apparent Ki from IC50, ADP-Glo
Measure: Ki (nM)

Cn1cc(-c2nc(Nc3cn[nH]c3)ncc2Cl)cn1 [Compound 15] ... 5
Cn1cc(Nc2ncc(Cl)c(-c3cnn(CCN4CCOCC4)c3)n2)cn1 [Compound 32] ... 252
Cc1nn(C)cc1-c1nc(Nc2cnn(C)c2)ncc1F [Compound 20] ... 26

[A] Cn1cc(Nc2ncc(Cl)c(-c3cnn(C)c3)n2)cn1 [Compound 17]
[B] Cn1cc(Nc2ncc(F)c(-c3cnn(C)c3)n2)cn1 [Compound 16]
Query block: Kindly compare A with B and tell me which has the lower Ki figure. API: response body contains the label of the selected item.
Result block: A

[1] Cn1cc(-c2nc(Nc3cnn(CC(N)=O)c3)ncc2F)cn1 [Compound 18]
[2] Cc1nn(C)cc1-c1nc(Nc2cnn(C)c2)ncc1Cl [Compound 21]
Query block: Kindly compare 1 with 2 and tell me which has the lower Ki figure. API: response body contains the label of the selected item.
Result block: 2
(2: 23 nM, 1: 85 nM)

[I] Cn1cc(-c2nc(Nc3cn[nH]c3)ncc2F)cn1 [Compound 14]
[II] Cn1cc(-c2nc(Nc3cnn(CC(N)=O)c3)ncc2Cl)cn1 [Compound 19]
Query block: Lab note: check whether I or II shows the higher recorded Ki. API: response body contains the label of the selected item.
Result block: II
(II: 25 nM, I: 7 nM)
